# System: M14 melanoma
# TEST SUMMARY: NCI-60 one-dose screen, 48 h
# TEST CONTEXT: 10 µM unless noted
# Procedure: Growth inhibition of the M14 human tumor cell line is measured as a screen for anti-cancer activity. Cells are grown in 96 well plates and exposed to the test compound for 48 hours. Compounds are tested at a single concentration, which is 10^-5 M for most compounds. The reported endpoint is percent growth (GI% or GIPRCNT), where numbers from 0 - 100% represent growth inhibition, and numbers from -100% - 0 represent cell death. For example, a value of 40 represents 60% growth inhibition. […]
This is part of a sample that, as a whole, favours compounds with a hit. Of some 83,000 tested, about 20% had one in any assay. Active and inactive are the calls of the source. The calls were made as follows: active = growth percent below 10; inactive = the rest.
The categories you may choose from are active, inactive

input: Check the results log: what was the call for `O=C(Nc1cccc(-n2ccc3c(NC(=O)c4ccccc4)nccc32)c1)c1ccc(Cl)c(Cl)c1` ?
output: active

Others:
input: Check the results log: what was the call for `CN(C)c1ccc(/C=C\c2cccc[n+]2C)cc1` ?
output: inactive

input: Check the results log: what was the call for `O=[N+]([O-])c1ccc(SSc2ccc([N+](=O)[O-])cc2Cl)c(Cl)c1` ?
output: inactive

input: Check the results log: what was the call for `O=S1(=O)NCCN1CCNc1nccc(-c2c(-c3cccc(O)c3)nc3sccn23)n1` ?
output: inactive
